Test system: 454973-116-R2-J3-PDC spheroids, percent test/control viability;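 also: spheroids exposed to compounds for 7 days before readout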
Assay: Anticancer human tumor 454973-116-R2-J3-PDC patient-derived pancreatic carcinoma cell line growth inhibition [CLK]
Conditions: second compound 0.0316 µM; first compound 0.000949 µM; hits give low values; spheroids with HUVEC and MSC
attribute-measured: viability, T/C (%)
Return type: number; implicit unit %.

[
  {
    "compound": "CC(C)CC(NC(=O)C(Cc1ccccc1)NC(=O)c1cnccn1)B(O)O (centres undefined) + CNC(=O)c1ccc(Nc2nc(OC3CCCC3)c3c(-c4ccc5nc(C)oc5c4)c[nH]c3n2)c(OC)c1",
    "result-units": "%",
    "viability, T/C": 104
  },
  {
    "compound": "C=CC(=O)Nc1cc(Nc2nccc(-c3cn(C)c4ccccc34)n2)c(OC)cc1N(C)CCN(C)C + CN1CCN(c2cc(C(=O)Nc3cc4cc(-c5cnn(C)c5)ccc4cn3)ccn2)CC1",
    "result-units": "%",
    "viability, T/C": 95.6
  },
  {
    "compound": "CC(C)CC(NC(=O)C(Cc1ccccc1)NC(=O)c1cnccn1)B(O)O (centres undefined) + CN1CCN(c2cc(C(=O)Nc3cc4cc(-c5cnn(C)c5)ccc4cn3)ccn2)CC1",
    "result-units": "%",
    "viability, T/C": 94.4
  }
]

For the next question, use this compound.
Find viability, T/C (454973-116-R2-J3-PDC spheroids, percent test/control viability) for the entry C=CC(=O)Nc1cc(Nc2nccc(-c3cn(C)c4ccccc34)n2)c(OC)cc1N(C)CCN(C)C + CNC(=O)c1ccc(Nc2nc(OC3CCCC3)c3c(-c4ccc5nc(C)oc5c4)c[nH]c3n2)c(OC)c1
106
